The values you see were collected from the RNAGym collection of RNA variant scans (doi:10.7554/elife.90254).

B1: LINE1-mini (parent)
chain: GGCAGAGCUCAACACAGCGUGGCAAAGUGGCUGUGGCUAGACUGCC

Variants of: B1
Assay: self-cleavage, relative activity (ratio to wild type); higher = more cleavage; in vitro, sequencing; the parent is a self-cleaving ribozyme
property_name: self-cleavage
Hey, just send me the number, nothing else.

In the examples that follow, each entry is paired with its recorded self-cleavage.
GET /value?item= G1U G2U &field=self-cleavage returns 0.13

Entry C8A G36U — recorded self-cleavage = 0.22

Notebook: A26C C46G , self-cleavage read as 0.75

Reported self-cleavage of A12G C42A : 0.05

Given item U38A G40C , the value recorded as its self-cleavage is 0.09

Next:
self-cleavage reading for A16U U43C : 0.04

Looking up A25U G27U , I found its self-cleavage recorded as 0.74

So, U9A G35C ? Its self-cleavage was 0.08

The reported self-cleavage of the variant G7A C10U was 0.04

Looking up U20A U43A , I see its self-cleavage listed as 0.08

Lookup result for C13A G27U ; measured self-cleavage: 0.08

Query C15U U34G yields self-cleavage of 0.07

Record A12C U38C , field self-cleavage: 0.04
